B1: LINE1-mini (parent)
chain: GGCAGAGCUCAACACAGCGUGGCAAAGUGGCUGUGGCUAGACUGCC

- Variants of: B1
- Test: self-cleavage, relative activity (ratio to wild type); higher = more cleavage; in vitro, sequencing; the parent is a self-cleaving ribozyme
# self-cleavage annotations

Please review the following examples before continuing.
1) A39G C45G; 0.09
2) C15U C45U; 0.79
3) U9A G44U; 0.09
4) A16U A41C; 0.05
5) G27C U38A; 0.34
6) C10G A11G; 0.03
7) C37A U38C; 0.03
8) C13U G36A; 0.63

-- ask Record request: self-cleavage value, item G7C U34A
-- reply 0.05

-- ask Record request: self-cleavage value, item C31G U34A
-- reply 0.03

-- ask Record request: self-cleavage value, item A12G U32G
-- reply 0.49

-- ask Record request: self-cleavage value, item G7C G35A
-- reply 0.08

-- ask Record request: self-cleavage value, item G17C G36C
-- reply 0.04

-- ask Record request: self-cleavage value, item C13A G19A
-- reply 0.15

-- ask Record request: self-cleavage value, item C3U A16G
-- reply 0.16

-- ask Record request: self-cleavage value, item G7C C45G
-- reply 0.11

These data points were gathered from the RNAGym collection of RNA variant scans (doi:10.7554/elife.90254).
